Source: PubChem BioAssay (NCI)

# Test system: OVCAR-5 ovarian
# RUN DESCRIPTION: NCI tumour cell line growth inhibition, 48 h; in the data active = GI50 below about 0.43 µM; inactive = the rest
Classes to choose from: active, inactive

Example cases with answers are listed next.
| MOLECULE | ASSIGNED CLASS |
| --- | --- |
| Cc1ccccc1-n1ncc(C(=O)c2ccccc2)c1N | inactive |
| CCOC(=O)c1c(C)n2c(=O)cc(C)c3c(O)c(O)cc1c32 | inactive |
| Cl.Fc1c[c-]c(-c2ccccn2)c(F)c1.[Pt].c1ccc(P(c2ccccc2)C([PH+](c2ccccc2)c2ccccc2)[PH+](c2ccccc2)c2ccccc2)cc1 | inactive |
| NC(N)=N/N=C/c1c(-c2cc(Cl)sc2Cl)nc2sccn12 | inactive |
| Cc1ccc(-c2cc3c(SCC(=O)Nc4cc(C(F)(F)F)ccc4Cl)nccn3n2)cc1 | inactive |
| CN(C)c1ccc(N=C2C=CC(=[N+](C)C)C=C2)cc1 | inactive |
| C/C(=C\CCc1ccoc1)CC/C=C(\C)CCCN1CCOCC1 | inactive |
| CCOC(=O)n1cc(C2=C(c3cn(C)c4ccccc34)COC2=O)c2ccccc21 | inactive |
| O=C1Nc2c(C(F)(F)F)cccc2[C@@]1(c1ccc(O)cc1)c1ccc(OC(F)(F)F)cc1 | active |
| Clc1cccc(Cl)c1C1CSc2ccccc2N=C1c1ccccc1 (configuration not stated) | inactive |

Name the outcome recorded for CCCCCCCCN(CCCCCCCC)CCCCCCNc1cc(OC)cc2cccnc12 in the assay.
inactive

Name the outcome recorded for O=C(/C(=C\c1ccc([N+](=O)[O-])cc1)S(=O)Cc1ccc(F)cc1)c1ccc(F)cc1 (configuration not stated) in the assay.
inactive
